Assay: Cytotoxicity, live cells by flow cytometry, THP-1 cells (PMA−/PMA+)
Assay type: cell-based
Conditions: human, PMA-differentiated, non-dividing THP-1 cells (PMA+); THP-1 PMA+; read-out: CC50
Experimental: H9, Jurkat and undifferentiated U937 and THP-1 (PMA^−) cells (6 × 10^5 cells/mL) were treated with increasing concentrations of nucleoside analogues (0–200 μM; except CFB, 0–1.6 μM) and incubated at 37 °C in 5% CO2 for 48 h. […] The percentage of live cells was determined by flow cytometry using Live/Dead fixable blue-fluorescent dyes (Invitrogen) and a Fortessa X20 analyser (BD Biosciences). Data were analysed using the FlowJo software suite. […]
measured_parameter: CC50 at 48 h

[ask] If you can, please state the reported CC50 at 48 h value of Cc1ccnc2c1NC(=O)c1cccnc1N2C1CC1 [NVP, Nevirapine] .
[reply] > 200 µM

====

test: Cytotoxicity, live cells by flow cytometry, U937 cells (PMA−/PMA+); type: cell-based; settings: human, U937 PMA+; read-out: CC50
measured_parameter: CC50 at 48 h

[ask] If you can, please state the reported CC50 at 48 h value of "Cc1nnc(C(=O)NC(C)(C)c2nc(C(=O)NCc3ccc(F)cc3)c(O)c(=O)n2C)o1" .
[reply] > 200 µM

====

Parameter: CC50 at 48 h. Scope: all listed entries.
assay: Cytotoxicity, live cells by flow cytometry, Jurkat cells; format: cell-based; settings: human

[ask] If you can, please state the reported CC50 at 48 h value of "Nc1nc(O)c2ncn(COC(CO)CO)c2n1" .
[reply] > 200 µM

[ask] If you can, please state the reported CC50 at 48 h value of "O=c1[nH]cnc2c1ncn2[C@H]1CC[C@@H](CO)O1" .
[reply] > 200 µM

[ask] If you can, please state the reported CC50 at 48 h value of "Nc1nc(Cl)nc2c1ncn2[C@@H]1O[C@H](CO)[C@@H](O)[C@@H]1F" .
[reply] 0.049 µM

[ask] If you can, please state the reported CC50 at 48 h value of "Nc1nc(NC2CC2)c2ncn([C@H]3C=C[C@@H](CO)C3)c2n1" .
[reply] > 200 µM

[ask] If you can, please state the reported CC50 at 48 h value of "Nc1nc2c(ncn2COCCO)c(=O)[nH]1" .
[reply] > 200 µM

// below: CC50 at 48 h requested for another compound
[ask] If you can, please state the reported CC50 at 48 h value of Cc1cn([C@H]2C=C[C@@H](CO)O2)c(=O)[nH]c1=O [d4T, 2′,3′-didehydro-2′,3′-dideoxythymidine] .
[reply] > 200 µM

====

assay: Cytotoxicity, live cells by flow cytometry, U937 cells (PMA−/PMA+); format: cell-based; conditions: human, CC50
measured_parameter: CC50 at 48 h

[ask] If you can, please state the reported CC50 at 48 h value of O=c1[nH]cnc2c1ncn2[C@H]1CC[C@@H](CO)O1 [ddI, 2′,3′-dideoxyinosine] .
[reply] > 200 µM

====

Parameter: CC50 at 48 h. Scope: all listed entries.
test: in vitro; type: cell-based; settings: human

Sample records with CC50 at 48 h:
[ask] If you can, please state the reported CC50 at 48 h value of O=c1[nH]cnc2c1ncn2[C@H]1CC[C@@H](CO)O1 [ddI, 2′,3′-dideoxyinosine] .
[reply] > 200 µM

[ask] If you can, please state the reported CC50 at 48 h value of Cc1cn([C@H]2C=C[C@@H](CO)O2)c(=O)[nH]c1=O [d4T, 2′,3′-didehydro-2′,3′-dideoxythymidine] .
[reply] > 200 µM

---
[ask] If you can, please state the reported CC50 at 48 h value of Nc1nc(NC2CC2)c2ncn([C@H]3C=C[C@@H](CO)C3)c2n1 [ABC] .
[reply] > 200 µM

====

experiment: Cytotoxicity, live cells by flow cytometry, U937 cells (PMA−/PMA+); format: cell-based; settings: human, undifferentiated U937 cells (PMA−); U937 PMA−; read-out: CC50
measured_parameter: CC50 at 48 h

[ask] If you can, please state the reported CC50 at 48 h value of "Cc1ccnc2c1NC(=O)c1cccnc1N2C1CC1" .
[reply] > 200 µM

====

system: HIV-1-GFP; experiment: microbe, parasite or virus in culture; type: cell-based; conditions: Human immunodeficiency virus 1, H9, read-out: EC50 anti-HIV-1, H9 cells
Parameter: pEC50. Scope: all listed entries.
Hey, just a heads up that pEC50 is the negative log base 10 of the concentration in molar.

Sample records with pEC50:
[ask] If you can, please state the reported pEC50 value of "Cc1ccnc2c1NC(=O)c1cccnc1N2C1CC1" .
[reply] 6.80

[ask] If you can, please state the reported pEC50 value of "Cc1nnc(C(=O)NC(C)(C)c2nc(C(=O)NCc3ccc(F)cc3)c(O)c(=O)n2C)o1" .
[reply] 8.70

// below: pEC50 requested for another molecule
[ask] If you can, please state the reported pEC50 value of "Nc1nc(Cl)nc2c1ncn2[C@@H]1O[C@H](CO)[C@@H](O)[C@@H]1F" .
[reply] 7.03

====

system: HIV-1-GFP; experiment: microbe, parasite or virus in culture; type: cell-based; conditions: Human immunodeficiency virus 1, THP-1, read-out: EC50 [95% CI], THP1 PMA−
pEC50: −log10 of the molar value.
Parameter threshold = 6. Response is yes when pEC50 meets or exceeds it, else no.

Look over these answered cases.
[ask] Reported pEC50 reaches at least 6 for "Nc1nc(Cl)nc2c1ncn2[C@@H]1O[C@H](CO)[C@@H](O)[C@@H]1F" ?
[reply] yes

[ask] Reported pEC50 reaches at least 6 for "Cc1nnc(C(=O)NC(C)(C)c2nc(C(=O)NCc3ccc(F)cc3)c(O)c(=O)n2C)o1" ?
[reply] yes

---
[ask] Reported pEC50 reaches at least 6 for Cc1cn([C@H]2C=C[C@@H](CO)O2)c(=O)[nH]c1=O [d4T, 2′,3′-didehydro-2′,3′-dideoxythymidine] ?
[reply] no

[ask] Reported pEC50 reaches at least 6 for "O=c1[nH]cnc2c1ncn2[C@H]1CC[C@@H](CO)O1" ?
[reply] no

[ask] Reported pEC50 reaches at least 6 for "Cc1ccnc2c1NC(=O)c1cccnc1N2C1CC1" ?
[reply] yes

[ask] Reported pEC50 reaches at least 6 for "Nc1nc2c(ncn2COCCO)c(=O)[nH]1" ?
[reply] no

[ask] Reported pEC50 reaches at least 6 for "Nc1nc(O)c2ncn(COC(CO)CO)c2n1" ?
[reply] no

[ask] Reported pEC50 reaches at least 6 for "Nc1nc(NC2CC2)c2ncn([C@H]3C=C[C@@H](CO)C3)c2n1" ?
[reply] yes

====

test: Cytotoxicity, live cells by flow cytometry, THP-1 cells (PMA−/PMA+); format: cell-based; settings: human, CC50
measured_parameter: CC50 at 48 h

[ask] If you can, please state the reported CC50 at 48 h value of "O=c1[nH]cnc2c1ncn2[C@H]1CC[C@@H](CO)O1" .
[reply] > 200 µM

====

assay: Cytotoxicity, live cells by flow cytometry, THP-1 cells (PMA−/PMA+); format: cell-based; details: human, THP-1 PMA+; read-out: CC50
measured_parameter: CC50 at 48 h

[ask] If you can, please state the reported CC50 at 48 h value of Cc1nnc(C(=O)NC(C)(C)c2nc(C(=O)NCc3ccc(F)cc3)c(O)c(=O)n2C)o1 [RAL, Raltegravir] .
[reply] > 200 µM

====

test system: HIV-1-GFP; assay: microbe, parasite or virus in culture; assay type: cell-based; settings: Human immunodeficiency virus 1, H9, read-out: EC50 anti-HIV-1, H9 cells
pEC50: −log10 of the molar value.
measured_parameter: pEC50

Sample records with pEC50:
[ask] If you can, please state the reported pEC50 value of Nc1nc(O)c2ncn(COC(CO)CO)c2n1 [GCV, 2′-Nor-2′-deoxyguanosine] .
[reply] < 3.70

[ask] If you can, please state the reported pEC50 value of Nc1nc2c(ncn2COCCO)c(=O)[nH]1 [ACV, Acycloguanosine] .
[reply] < 3.70

---
[ask] If you can, please state the reported pEC50 value of Cc1cn([C@H]2C=C[C@@H](CO)O2)c(=O)[nH]c1=O [d4T, 2′,3′-didehydro-2′,3′-dideoxythymidine] .
[reply] > 5.00
